Molecular target: EPHB2 (UniProt P29323)
Sequence (P29323 whole entry, looked up): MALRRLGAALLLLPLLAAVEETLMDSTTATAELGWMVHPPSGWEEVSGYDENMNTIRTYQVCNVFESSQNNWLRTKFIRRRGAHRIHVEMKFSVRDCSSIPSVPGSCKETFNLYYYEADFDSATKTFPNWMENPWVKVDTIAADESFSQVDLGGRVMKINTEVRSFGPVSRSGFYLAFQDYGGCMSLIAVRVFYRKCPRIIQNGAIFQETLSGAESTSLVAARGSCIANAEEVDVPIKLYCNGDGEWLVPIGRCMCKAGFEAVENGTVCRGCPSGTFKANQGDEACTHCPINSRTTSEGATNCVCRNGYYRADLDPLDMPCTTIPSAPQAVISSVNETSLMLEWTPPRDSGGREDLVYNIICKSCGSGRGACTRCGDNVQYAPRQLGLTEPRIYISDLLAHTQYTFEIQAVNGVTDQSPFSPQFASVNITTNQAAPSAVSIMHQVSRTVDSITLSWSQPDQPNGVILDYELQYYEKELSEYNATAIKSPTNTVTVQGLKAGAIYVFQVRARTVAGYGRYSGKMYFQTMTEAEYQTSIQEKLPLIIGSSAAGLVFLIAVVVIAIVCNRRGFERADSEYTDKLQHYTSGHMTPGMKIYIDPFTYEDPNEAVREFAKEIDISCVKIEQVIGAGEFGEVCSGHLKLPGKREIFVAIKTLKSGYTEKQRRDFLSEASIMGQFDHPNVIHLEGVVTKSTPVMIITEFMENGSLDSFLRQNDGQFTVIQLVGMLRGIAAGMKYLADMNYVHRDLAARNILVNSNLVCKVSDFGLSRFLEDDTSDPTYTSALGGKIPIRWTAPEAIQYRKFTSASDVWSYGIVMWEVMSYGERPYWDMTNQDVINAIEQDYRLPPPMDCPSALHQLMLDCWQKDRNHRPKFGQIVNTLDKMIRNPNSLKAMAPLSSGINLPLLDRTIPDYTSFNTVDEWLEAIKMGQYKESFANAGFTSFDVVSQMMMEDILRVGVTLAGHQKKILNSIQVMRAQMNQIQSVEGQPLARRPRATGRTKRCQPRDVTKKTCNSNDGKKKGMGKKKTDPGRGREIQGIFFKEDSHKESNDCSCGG
Experiment: phosphorylation enrichment, bacterial display (enrichment ratio); higher = better substrate or ligand; peptides without Tyr show the background;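 further: 11-residue human phosphosite peptides and single-mutation variants displayed on the E. coli surface, counted by deep sequencing, each peptide's frequency after selection divided by its frequency in the unselected input library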;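 further: frequency after pTyr selection over input frequency; kinase dosed for 20-30% of maximal phosphorylation in three min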
The following sequences are shown together with reported phosphorylation enrichment values.
Write no unit; give the number alone.

residue_sequence	phosphorylation enrichment
RSAGKDDVYLI [MECP2_Y120_Y120D]	0.603
ESFCLYPPVPQ [CYP4B1_Y377_R375C]	0.595
ARLDEYIAIAK [RCOR3_Y46_K42R]	0.51
APGNAYGDAGY [SYP_Y250_D248N]	0.451
IIWDSYTTNKV [GNB1_Y85]	0.598

Entry LPKVSYVKAID [GLRA1_Y307] — recorded phosphorylation enrichment = 0.411

Entry YRVAGYKTQGG [TIA1_Y383_E384K] — recorded phosphorylation enrichment = 0.309

Entry LMIKEYLTKEL [BAG3_Y457_E455K] — recorded phosphorylation enrichment = 0.612

Entry NPEACYQRLKK [TK2_Y190_T188A] — recorded phosphorylation enrichment = 0.507

Entry RFLFFYSFLLK [PTEN_Y178_V175L_YF] — recorded phosphorylation enrichment = 0.574

Entry IFETDYFQKGG [INSR_Y1189_R1191Q_YF] — recorded phosphorylation enrichment = 0.401

Entry GDPVQYNRTTD [MLPH_Y454] — recorded phosphorylation enrichment = 0.551

Entry SPYAVYLFFTF [RPGRIP1_Y826_R827L] — recorded phosphorylation enrichment = 0.487

Entry DLQDENDFKCK [STAT1_Y170_Y170N] — recorded phosphorylation enrichment = 0.737

Entry ETRWKYHFEVV [GCNT3_Y267] — recorded phosphorylation enrichment = 0.706

Entry IVEFAYNDKAI [PUM3_Y259_YF] — recorded phosphorylation enrichment = 0.59

Entry GNYSGYDDAWD [POLR1C_Y36] — recorded phosphorylation enrichment = 5.87

Entry SNKLTYGTVVF [ACOX1_Y275_M278V] — recorded phosphorylation enrichment = 0.725

Entry KINKMYSDHAM — recorded phosphorylation enrichment = 0.285

Entry DLRTGYSVPFG [TGM1_Y370_Y365D_YF] — recorded phosphorylation enrichment = 0.468

Entry HFGCVYRGTLL [MET_Y1093_H1094R] — recorded phosphorylation enrichment = 0.87

Entry DKATEYSQFMR [MAX_Y70_I71S_YF] — recorded phosphorylation enrichment = 0.541

Entry KMKGDYFRSLA [YWHAG_Y130_Y133S_YF] — recorded phosphorylation enrichment = 0.361

Entry LVQAEYWHDPI [PPT1_Y185] — recorded phosphorylation enrichment = 0.487
